The reported measurements were obtained from patent US8546608B2.

Target: 20S Human Erythrocyte Proteasome (HEP) (Homo sapiens, UniProt P20618+P28074)
Construct: 20S Human Erythrocyte Proteasome (HEP), purchased from Immatics Biotechnologies Inc
Test: Chymotrypsin-like activity of 20S Human Erythrocyte Proteasome (HEP), IC50 determination
Conditions: assay of Example C, inhibition of HEP
pIC50: −log10 of the molar value.
endpoint: pIC50

**Query** Bench note: what pIC50 did `CC(C)C[C@H](NC(=O)[C@H](CCCNC(=N)N[N+](=O)[O-])NC(=O)CCN1C(=O)c2ccccc2C1=O)B1O[C@@H]2C[C@@H]3C[C@@H](C3(C)C)[C@]2(C)O1` show?
**Result** > 8.00

**Query** Recorded pIC50 of `CCCCCCCCC(C)(C)C(=O)N[C@H](C(=O)N[C@@H](CC(C)C)B(O)O)[C@@H](C)O` , please.
**Result** > 8.00

**Query** Returns the measured pIC50 for the input molecule. Input: `CC(C)C[C@H](NC(=O)[C@H](CNC(=O)Nc1ccccc1)NC(=O)c1ccc(Oc2ccccc2)cc1)B(O)O`
**Result** > 8.00

---

Target: proteasome in Molt-4 cells (human leukemia) (Homo sapiens, UniProt P20618+P28074)
Sequence (P28074 60-263): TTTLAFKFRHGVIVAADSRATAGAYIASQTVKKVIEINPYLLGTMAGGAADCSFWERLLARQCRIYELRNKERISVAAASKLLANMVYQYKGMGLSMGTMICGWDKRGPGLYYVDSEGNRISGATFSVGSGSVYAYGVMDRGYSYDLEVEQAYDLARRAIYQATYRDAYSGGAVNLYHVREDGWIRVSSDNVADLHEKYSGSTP
Sequence (P20618 29-241): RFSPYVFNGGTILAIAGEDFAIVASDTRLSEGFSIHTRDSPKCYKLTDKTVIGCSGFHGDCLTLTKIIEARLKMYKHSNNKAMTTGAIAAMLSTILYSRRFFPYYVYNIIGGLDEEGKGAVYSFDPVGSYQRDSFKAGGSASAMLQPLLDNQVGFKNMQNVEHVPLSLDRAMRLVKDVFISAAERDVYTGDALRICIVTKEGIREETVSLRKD
Format: cell-based
Settings: assay of Example E, inhibition of MOLT4; read-out: MOLT4 (EC50)
Experimental: Cellular Assay for Chymotrypsin-like activity of Proteasome in Molt-4 Cell Line The chymotrypsin-like activity of proteasome in Molt-4 cells (human leukemia) was assayed according to the following procedure. […] The concentration of free AFC was monitored every 1.5 min for 30 min ([…]) on a Polastar Optima, BMG Labtechnologies microplate reader, using an excitation wavelength of 390 nm and emission wavelength of 520 nm. […]
endpoint: EC50

**Query** What value of measured EC50 is listed for `CC(C)C[C@H](NC(=O)[C@H](CCCNC(=N)N[N+](=O)[O-])NC(=O)/C=C/c1ccc2ccccc2c1)B1O[C@@H]2C[C@@H]3C[C@@H](C3(C)C)[C@]2(C)O1` ?
**Result** < 200 nM

**Query** Value lookup for EC50; key = `CC(C)C[C@H](NC(=O)[C@H](CCCNC(=N)N[N+](=O)[O-])NC(=O)CCCC(=O)c1ccccc1)B1O[C@@H]2C[C@@H]3C[C@@H](C3(C)C)[C@]2(C)O1`
**Result** 200 to 2000 nM

**Query** Which EC50 value belongs to `Cc1ccc(CCCC(=O)N[C@@H](CCCNC(=N)N[N+](=O)[O-])C(=O)N[C@@H](CC(C)C)B2O[C@@H]3C[C@@H]4C[C@@H](C4(C)C)[C@]3(C)O2)cc1` ?
**Result** < 200 nM

**Query** What value of EC50 has been recorded for this entry: `CCCCCc1ccc(S(=O)(=O)N[C@@H](CCCNC(=N)N[N+](=O)[O-])C(=O)N[C@@H](CC(C)C)B2O[C@@H]3C[C@@H]4C[C@@H](C4(C)C)[C@]3(C)O2)cc1`
**Result** < 200 nM

**Query** Need EC50 of `CCCCc1ccc(C(=O)N[C@@H](CNC(=O)NS(=O)(=O)c2ccc(C)cc2)C(=O)N[C@@H](CC(C)C)B(O)O)cc1` , thanks.
**Result** 200 to 2000 nM

**Query** So what does the record say about EC50 for `COC(=O)CCCC(=O)N[C@@H](CCCNC(=N)N[N+](=O)[O-])C(=O)N[C@@H](CC(C)C)B1O[C@@H]2C[C@@H]3C[C@@H](C3(C)C)[C@]2(C)O1` ?
**Result** 200 to 2000 nM

**Query** Looking for the measured EC50 of `CCCCc1ccc(C(=O)N[C@@H](CNS(C)(=O)=O)C(=O)N[C@@H](CC(C)C)B(O)O)cc1` , can you help?
**Result** 200 to 2000 nM

**Query** Find the recorded EC50 belonging to `CCCCCCCCCC(=O)N[C@H](C(=O)N[C@@H](CC(C)C)B1O[C@@H]2C[C@@H]3C[C@@H](C3(C)C)[C@]2(C)O1)[C@@H](C)O` and report it.
**Result** < 200 nM

**Query** Given the compound `CC(C)C[C@H](NC(=O)[C@H](CCCNC(=N)N[N+](=O)[O-])NC(=O)CC12CC3CC(CC(C3)C1)C2)B1O[C@@H]2C[C@@H]3C[C@@H](C3(C)C)[C@]2(C)O1` , what is its reported EC50?
**Result** < 200 nM

**Query** For the compound `CC(C)C[C@H](NC(=O)[C@H](CCCNC(=N)N[N+](=O)[O-])NC(=O)Cc1cccc(Cl)c1)B1O[C@@H]2C[C@@H]3C[C@@H](C3(C)C)[C@]2(C)O1` , what EC50 is on record?
**Result** 200 to 2000 nM

**Query** Reported EC50 for CC(C)C[C@H](NC(=O)[C@H](CCCNC(=N)N[N+](=O)[O-])NC(=O)C1CC2CCC1C2)B(O)O (stereo partly drawn) : what is it?
**Result** 2000 to 10000 nM

**Query** EC50 for `CCCCc1ccc(C(=O)N[C@@H](CNC(=O)c2cccnc2)C(=O)N[C@@H](CC(C)C)B(O)O)cc1` ?
**Result** < 200 nM

**Query** I would be grateful if you could share the reported EC50 for `CC(C)C[C@H](NC(=O)[C@H](CCCNC(=N)N[N+](=O)[O-])NC(=O)CCCCCCCCC#N)B(O)O` .
**Result** > 10000 nM

**Query** Recorded EC50 of `CCCCCC/C=C/CC(=O)N[C@@H](CCCNC(=N)N[N+](=O)[O-])C(=O)N[C@@H](CC(C)C)B1O[C@@H]2C[C@@H]3C[C@@H](C3(C)C)[C@]2(C)O1` , please.
**Result** < 200 nM

**Query** # get_value(readout='EC50', item= `C/C(=C\c1ccccc1)C(=O)N[C@@H](CCCNC(=N)N[N+](=O)[O-])C(=O)N[C@@H](CC(C)C)B(O)O` )
**Result** 2000 to 10000 nM

**Query** Consider the compound `CC(C)C[C@H](NC(=O)[C@H](CCCNC(=N)N[N+](=O)[O-])NC(=O)CCN1C(=O)c2ccccc2C1=O)B(O)O` and give its measured EC50.
**Result** > 10000 nM

**Query** Look at this compound and give its reported EC50. `CC(C)C[C@H](NC(=O)[C@H](CCCNC(=N)N[N+](=O)[O-])NC(=O)CCSc1ccc2ccccc2c1)B(O)O`
**Result** 200 to 2000 nM

**Query** For the compound `CCCCc1ccc(C(=O)N[C@H](C(=O)N[C@@H](CC(C)C)B2O[C@@H]3C[C@@H]4C[C@@H](C4(C)C)[C@]3(C)O2)[C@@H](C)O)cc1` , what EC50 is on record?
**Result** < 200 nM

**Query** Fill in the blank: the reported EC50 of `COC(=O)CCCCCCC(=O)N[C@@H](CCCNC(=N)N[N+](=O)[O-])C(=O)N[C@@H](CC(C)C)B1O[C@@H]2C[C@@H]3C[C@@H](C3(C)C)[C@]2(C)O1` is ____.
**Result** 200 to 2000 nM

**Query** // EC50 lookup, key: `CC(C)C[C@H](NC(=O)[C@H](CCCNC(=N)N[N+](=O)[O-])NC(=O)CC12CC3CC(CC(C3)C1)C2)B(O)O`
**Result** 2000 to 10000 nM

**Query** So what's the measured EC50 for this one? `CCCCCCCCS(=O)(=O)N[C@@H](CCCNC(=N)N[N+](=O)[O-])C(=O)N[C@@H](CC(C)C)B1O[C@@H]2C[C@@H]3C[C@@H](C3(C)C)[C@]2(C)O1`
**Result** < 200 nM

**Query** Requested field: EC50. Item: `CC(=O)SCCCCCC(=O)N[C@@H](CCCNC(=N)N[N+](=O)[O-])C(=O)N[C@@H](CC(C)C)B1O[C@@H]2C[C@@H]3C[C@@H](C3(C)C)[C@]2(C)O1`
**Result** 200 to 2000 nM

**Query** Given the entry `CC(C)C[C@H](NC(=O)[C@H](CCCNC(=N)N[N+](=O)[O-])NC(=O)CCCC(=O)c1ccccc1)B(O)O` , report its measured EC50.
**Result** > 10000 nM

**Query** Tell me the measured EC50 of `Cc1ccc(OCC(=O)N[C@H](C(=O)N[C@@H](CC(C)C)B2O[C@@H]3C[C@@H]4C[C@@H](C4(C)C)[C@]3(C)O2)[C@@H](C)O)cc1` , please.
**Result** < 200 nM

---

Please go through the items and note down their melting point.

**Query** GET /values?readout=melting point&item= CCCCc1ccc(C(=O)N[C@@H](CNC(=O)OCc2ccccc2)C(=O)N[C@@H](CC(C)C)B(O)O)cc1 [E.5.6]
**Result** 92 to 96 °C

**Query** What melting point value was documented for this compound, CC(C)C[C@H](NC(=O)[C@H](CNS(=O)(=O)c1ccc(F)cc1)NC(=O)c1ccc(Oc2ccccc2)cc1)B1O[C@@H]2C[C@@H]3C[C@@H](C3(C)C)[C@]2(C)O1 [D.24.29] ?
**Result** 90 to 93 °C

**Query** Look up melting point for this compound: CC(C)C[C@H](NC(=O)[C@H](CNC(=O)OCc1ccccc1)NC(=O)c1ccc(Oc2ccccc2)cc1)B1O[C@@H]2C[C@@H]3C[C@@H](C3(C)C)[C@]2(C)O1 [D.16.9]
**Result** 100 to 103 °C

**Query** Need melting point of CCCCCCCCCC(=O)N[C@@H](CNC(=O)c1cccs1)C(=O)N[C@@H](CC(C)C)B1O[C@@H]2C[C@@H]3C[C@@H](C3(C)C)[C@]2(C)O1 [D.24.9] , thanks.
**Result** 110 °C

**Query** I have this compound here, CCCCc1ccc(C(=O)N[C@@H](CNC(=O)c2ccc(-c3ccccc3)cc2)C(=O)N[C@@H](CC(C)C)B2O[C@@H]3C[C@@H]4C[C@@H](C4(C)C)[C@]3(C)O2)cc1 [D.24.32] , and I need its recorded melting point.
**Result** 195 to 198 °C

**Query** Given the entry Cc1cc(C(=O)NC[C@H](NC(=O)c2ccc(Oc3ccccc3)cc2)C(=O)N[C@@H](CC(C)C)B2O[C@@H]3C[C@@H]4C[C@@H](C4(C)C)[C@]3(C)O2)n(C)n1 [D.24.30] , report its measured melting point.
**Result** 100 to 103 °C
